Values compiled from ChEMBL document CHEMBL4177740.

biological target: Protein O-GlcNAcase (Homo sapiens, UniProt O60502); assay: Inhibition of recombinant human OGA expressed in Escherichia coli BL21(DE3) using varying levels of 4-MU-GlcNAc as substrate measured after 30 mins by fluorescence assay
pKi: −log10 of the molar value.
READOUT: pKi

Prompt line: Please look up its pKi: CC(=O)N[C@@H]1[C@@H](O)[C@H](O)[C@@H](CO)O[C@H]1SCCCCCCn1cc(CN2C(=O)c3cccc4cccc(c34)C2=O)nn1
Response line: < 3.70

---

molecular target: Chitooligosaccharidolytic beta-N-acetylglucosaminidase (Ostrinia furnacalis) (UniProt Q06GJ0); experiment: Inhibition of Ostrinia furnacalis Hex1 expressed in Pichia pastoris at 100 uM using 4-MU-GlcNAc as substrate measured after 30 mins by fluorescence assay relative to control
Would you please tag the item condition met when its inhibition is 80% or above, and condition not met when it is below?

Some solved entries appear below for comparison.
[[record]]
given_smiles = "CC(=O)N[C@@H]1[C@@H](O)[C@H](O)[C@@H](CO)O[C@H]1SCCC(=O)NCCCN1C(=O)c2cccc3cccc(c23)C1=O"
label_value = "condition not met"

[[record]]
given_smiles = "CC(=O)N[C@@H]1[C@@H](O)[C@H](O)[C@@H](CO)O[C@H]1SCCn1cc(CN2C(=O)c3cccc4cccc(c34)C2=O)nn1"
label_value = "condition met"

[[record]]
given_smiles = "CC(=O)N[C@@H]1[C@@H](O)[C@H](O)[C@@H](CO)O[C@H]1SCC(=O)NCCN1C(=O)c2cccc3cccc(c23)C1=O"
label_value = "condition not met"

[[record]]
given_smiles = "CC(=O)N[C@@H]1[C@@H](O)[C@H](O)[C@@H](CO)O[C@H]1SCCCCn1cc(CN2C(=O)c3cccc4cccc(c34)C2=O)nn1"
label_value = "condition met"


Prompt line: # check: inhibition of CC(=O)N[C@H]1/C(=N/OC(=O)Nc2ccccc2)O[C@H](CO)[C@@H](O)[C@@H]1O is greater than or equal to 80%
Response line: condition met

Prompt line: Can CC(=O)N[C@@H]1[C@@H](O)[C@H](O)[C@@H](CO)O[C@H]1SCC(=O)NCCCCN1C(=O)c2cccc3cccc(c23)C1=O be said to have inhibition at or above 80%?
Response line: condition not met

---

target: Chitooligosaccharidolytic beta-N-acetylglucosaminidase (Ostrinia furnacalis)
Sequence (Q06GJ0 whole entry): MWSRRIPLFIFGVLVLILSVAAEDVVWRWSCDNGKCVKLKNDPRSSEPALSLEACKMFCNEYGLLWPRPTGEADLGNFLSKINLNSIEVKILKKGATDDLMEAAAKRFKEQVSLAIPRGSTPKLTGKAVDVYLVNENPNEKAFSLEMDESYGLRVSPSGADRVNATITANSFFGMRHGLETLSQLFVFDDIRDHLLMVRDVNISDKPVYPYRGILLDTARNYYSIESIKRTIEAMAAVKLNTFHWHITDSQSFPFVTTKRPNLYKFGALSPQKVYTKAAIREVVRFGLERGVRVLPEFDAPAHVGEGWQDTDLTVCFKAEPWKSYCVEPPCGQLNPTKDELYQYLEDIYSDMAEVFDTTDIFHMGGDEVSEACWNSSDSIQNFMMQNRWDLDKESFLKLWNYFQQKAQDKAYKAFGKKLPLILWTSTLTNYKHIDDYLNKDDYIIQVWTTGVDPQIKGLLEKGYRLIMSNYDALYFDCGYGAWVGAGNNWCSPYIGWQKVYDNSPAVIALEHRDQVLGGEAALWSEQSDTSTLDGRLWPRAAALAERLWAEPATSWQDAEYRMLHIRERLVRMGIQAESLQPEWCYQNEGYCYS
READOUT: Ki (µM)
Write it as a number; the unit µM goes unstated.

Prompt line: Form: Entry = CC(=O)N[C@@H]1[C@@H](O)[C@H](O)[C@@H](CO)O[C@H]1SCCCCCCn1cc(CN2C(=O)c3cccc4cccc(c34)C2=O)nn1 | System = Chitooligosaccharidolytic beta-N-acetylglucosaminidase (Ostrinia furnacalis) | Ki = ____
Response line: 21.8

---

Biological target: UniProt:O60502
Sequence (whole entry): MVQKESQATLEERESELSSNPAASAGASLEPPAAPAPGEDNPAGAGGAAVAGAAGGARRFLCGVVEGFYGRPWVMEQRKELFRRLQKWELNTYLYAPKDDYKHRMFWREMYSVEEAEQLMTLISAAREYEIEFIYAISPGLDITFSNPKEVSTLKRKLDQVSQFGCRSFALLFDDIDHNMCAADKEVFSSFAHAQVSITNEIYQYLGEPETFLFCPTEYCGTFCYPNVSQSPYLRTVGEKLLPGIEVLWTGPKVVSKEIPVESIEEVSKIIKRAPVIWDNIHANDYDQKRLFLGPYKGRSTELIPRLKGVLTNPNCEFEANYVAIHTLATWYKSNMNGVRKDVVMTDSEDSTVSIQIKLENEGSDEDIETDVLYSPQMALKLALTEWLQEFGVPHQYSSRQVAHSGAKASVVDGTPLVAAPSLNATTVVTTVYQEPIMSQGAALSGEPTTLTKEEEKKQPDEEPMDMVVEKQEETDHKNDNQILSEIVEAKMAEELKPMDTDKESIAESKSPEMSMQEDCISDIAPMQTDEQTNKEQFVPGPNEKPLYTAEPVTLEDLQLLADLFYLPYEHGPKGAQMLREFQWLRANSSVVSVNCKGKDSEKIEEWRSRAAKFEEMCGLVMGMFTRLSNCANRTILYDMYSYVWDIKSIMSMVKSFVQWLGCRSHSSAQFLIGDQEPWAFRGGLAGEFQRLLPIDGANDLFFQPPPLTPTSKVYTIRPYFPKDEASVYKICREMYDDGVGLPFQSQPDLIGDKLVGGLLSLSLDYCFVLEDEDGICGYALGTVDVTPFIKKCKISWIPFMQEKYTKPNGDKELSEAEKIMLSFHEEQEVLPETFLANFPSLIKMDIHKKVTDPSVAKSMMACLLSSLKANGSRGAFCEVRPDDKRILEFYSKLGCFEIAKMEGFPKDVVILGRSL
Test: Inhibition of recombinant human OGA expressed in Escherichia coli BL21(DE3) at 100 uM using 4-MU-GlcNAc as substrate measured after 30 mins by fluorescence assay relative to control
READOUT: inhibition
Units required after the number.

[[record]]
given_smiles = "CC(=O)N[C@@H]1[C@@H](O)[C@H](O)[C@@H](CO)O[C@H]1SCC(=O)NN1C(=O)c2cccc3cccc(c23)C1=O"
result = "31.1%"

[[record]]
given_smiles = "CC(=O)N[C@@H]1[C@@H](O)[C@H](O)[C@@H](CO)O[C@H]1SCC(=O)NCCCCN1C(=O)c2cccc3cccc(c23)C1=O"
result = "50%"

[[record]]
given_smiles = "CC(=O)N[C@@H]1[C@@H](O)[C@H](O)[C@@H](CO)O[C@H]1SCCCCn1cc(CN2C(=O)c3cccc4cccc(c34)C2=O)nn1"
result = "25.1%"

[[record]]
given_smiles = "CC(=O)N[C@@H]1[C@@H](O)[C@H](O)[C@@H](CO)O[C@H]1SCCCCCn1cc(CN2C(=O)c3cccc4cccc(c34)C2=O)nn1"
result = "26%"

[[record]]
given_smiles = "CC(=O)N[C@@H]1[C@@H](O)[C@H](O)[C@@H](CO)O[C@H]1SCCC(=O)NCCCCN1C(=O)c2cccc3cccc(c23)C1=O"
result = "34.3%"


Next up:
Prompt line: inhibition lookup needed for CC(=O)N[C@@H]1[C@@H](O)[C@H](O)[C@@H](CO)O[C@H]1SCCCn1cc(CN2C(=O)c3cccc4cccc(c34)C2=O)nn1 , thanks.
Response line: 22.7%
